SYSTEM NAME: HERG (Homo sapiens)
Construct: expressed in transfected cells; host or cells: HEK cells
Sequence (Q12809 whole entry): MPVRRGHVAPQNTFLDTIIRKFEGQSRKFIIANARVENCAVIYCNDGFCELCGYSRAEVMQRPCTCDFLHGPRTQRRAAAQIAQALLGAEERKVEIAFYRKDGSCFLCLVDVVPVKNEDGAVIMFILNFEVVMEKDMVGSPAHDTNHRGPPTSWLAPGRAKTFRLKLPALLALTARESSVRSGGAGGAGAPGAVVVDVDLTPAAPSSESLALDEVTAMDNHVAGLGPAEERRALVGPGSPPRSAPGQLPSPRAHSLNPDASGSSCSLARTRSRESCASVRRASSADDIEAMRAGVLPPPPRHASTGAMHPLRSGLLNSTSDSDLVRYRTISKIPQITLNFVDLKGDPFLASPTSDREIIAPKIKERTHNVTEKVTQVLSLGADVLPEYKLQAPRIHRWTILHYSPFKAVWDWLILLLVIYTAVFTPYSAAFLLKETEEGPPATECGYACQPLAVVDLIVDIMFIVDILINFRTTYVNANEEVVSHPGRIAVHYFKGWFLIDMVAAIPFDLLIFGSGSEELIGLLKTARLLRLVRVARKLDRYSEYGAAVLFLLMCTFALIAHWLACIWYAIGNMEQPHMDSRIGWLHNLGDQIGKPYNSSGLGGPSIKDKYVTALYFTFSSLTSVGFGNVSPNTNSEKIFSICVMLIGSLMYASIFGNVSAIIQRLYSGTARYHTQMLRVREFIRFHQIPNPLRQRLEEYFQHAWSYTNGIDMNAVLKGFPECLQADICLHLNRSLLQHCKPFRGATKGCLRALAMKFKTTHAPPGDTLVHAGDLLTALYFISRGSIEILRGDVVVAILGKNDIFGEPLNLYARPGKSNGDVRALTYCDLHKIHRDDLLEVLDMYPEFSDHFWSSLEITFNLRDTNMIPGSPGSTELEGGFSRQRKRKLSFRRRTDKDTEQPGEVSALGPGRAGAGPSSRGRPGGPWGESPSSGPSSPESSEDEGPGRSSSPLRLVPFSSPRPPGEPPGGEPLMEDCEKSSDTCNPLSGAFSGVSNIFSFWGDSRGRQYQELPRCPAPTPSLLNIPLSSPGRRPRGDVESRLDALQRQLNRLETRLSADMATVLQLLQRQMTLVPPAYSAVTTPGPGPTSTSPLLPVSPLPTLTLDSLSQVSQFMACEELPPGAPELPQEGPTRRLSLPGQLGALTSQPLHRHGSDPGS
PROTOCOL DESCRIPTION: HERG Patch Clamp EP (whole cell patch clamp, tail currents; single point at 10 μM and IC50)
Type: cell-based
RECORDED CONDITIONS: human, HEK cells stably overexpressing HERG, single point at 10 μM, HERG in HEK cells, read-out: HERG % Inhib. @ 10 μM
READOUT KIND: inhibition at 10 µM (%)
Give bare numbers, in %.

[[record]]
compound = "COc1ccc(CCN2C(=O)C3(CCN(C(N)=NC#N)CC3)N(C)C2c2ccc(C3CC3)cc2)cc1 (stereo not drawn) [Compound 31]"
readout_kind = "inhibition at 10 µM"
unit = "%"
reading = 25

[[record]]
compound = "COc1ccc(CCN2C(=O)C3(CCN(S(C)(=O)=O)CC3)N(C)C2c2ccc(C3CC3)cc2)cc1 (stereo not drawn) [Compound 32]"
readout_kind = "inhibition at 10 µM"
unit = "%"
reading = 57

[[record]]
compound = "CN1C(c2ccc(C3CC3)cc2)N(CCCc2ccccc2)C(=O)C12CCN(C(N)=O)CC2 (stereo not drawn) [Compound 49]"
readout_kind = "inhibition at 10 µM"
unit = "%"
reading = 67

[[record]]
compound = "CC(=O)N1CCC2(CC1)C(=O)N(CCCc1ccccc1)C(c1ccc(C3CC3)cc1)N2C (stereo not drawn) [Compound 44]"
readout_kind = "inhibition at 10 µM"
unit = "%"
reading = 61

[[record]]
compound = "COc1ccc(CCN2C(=O)C3(CCN(C(=O)C4CCCC4)CC3)N(C)C2c2ccc(OC(F)F)cc2)cc1 (stereo not drawn) [Compound 82]"
readout_kind = "inhibition at 10 µM"
unit = "%"
reading = 90

[[record]]
compound = "CC(C)NC(=O)N1CCC2(CC1)C(=O)N(CCCc1ccccc1)C(c1ccc(C3CC3)cc1)N2C (stereo not drawn) [Compound 52]"
readout_kind = "inhibition at 10 µM"
unit = "%"
reading = 79


List reported inhibition at 10 µM for each of these compounds:
1. COc1ccc(CCN2C(=O)C3(CCN(C(=NC#N)Oc4ccccc4)CC3)N(C)C2c2ccc(OC)cc2)cc1 (stereo not drawn) [Compound 67]
2. CCCCC(=O)N1CCC2(CC1)C(=O)N(CCc1ccc(OC)cc1)C(c1ccc(OC(F)F)cc1)N2C (stereo not drawn) [Compound 81]

1: 80; 2: 95

----------
SYSTEM NAME: HERG (Homo sapiens)
Construct: expressed in transfected cells; host or cells: HEK cells
PROTOCOL DESCRIPTION: HERG Patch Clamp EP (whole cell patch clamp, tail currents; single point at 10 μM and IC50)
Assay type: cell-based
RECORDED CONDITIONS: human, HEK cells stably overexpressing HERG, single point at 10 μM, HERG in HEK cells, read-out: HERG % Inhib. @ 10 μM
Decision: inhibition at 10 µM compared against 60%; not below it gives true, below it gives false.

Can COc1ccc(CCN2C(=O)C3(CCN(C(=O)N4CCC4)CC3)N(C)C2c2ccc(C3CC3)cc2)cc1 (stereo not shown) be said to have inhibition at 10 µM at or above 60%? false

Does the reported inhibition at 10 µM for COc1ccc(CCN2C(=O)C3(CCN(C(=O)NC4CCCC4)CC3)N(C)C2c2ccc(C3CC3)cc2)cc1 (stereo not shown) fall at or above the 60% mark? true

Does COc1ccc(CCN2C(=O)C3(CCN(C(N)=O)CC3)N(C)C2Cc2ccc(C(C)(C)C)cc2)cc1 (stereo not shown) have a reported inhibition at 10 µM of at least 60%? true

Hello, I need to know if COc1ccc(CCN2C(=O)C3(CCN(C(=O)NN)CC3)N(C)C2c2ccc(C3CC3)cc2)cc1 (stereo not shown) has measured inhibition at 10 µM not below 60%. Thanks! false

Has COc1ccc(CCN2C(=O)C3(CCN(C(N)=O)CC3)N(C)C2c2ccc(C3CC3)cc2)cc1 (stereo not shown) a recorded inhibition at 10 µM greater than or equal to 60%? false
